- target-under-test: SARS-CoV-2 S ectodomain trimer, prefusion-stabilized, 2P variant (Wrapp et al., 2020) (SARS-CoV-2, Wuhan-Hu-1, UniProt P0DTC2, stabilised)
outcome-measure: binding result

C12D5 (antibody, V domains shown) VH: QVQLVESGGGVVQPGRSLRLSCAASGFTFSSYVMHWVRQAPGKGLEWVAVISYDGSNKYYADSVKGRFTISRDNSKNTLYLQMNSLRAEDTAVYYCARDPGARRDGYVSLGGSYDWFDPWGQGTLVTVSS VL: QSVLTQPPSVSGAPGQRVTISCTGTSSNIGAGYDVHWYQQLPGTAPKLLIYGNSNRPSGVPDRFSGSKSGTSASLAITGLQAEDEADYYCQSYDSSLSGWVFGGGTKLTVL    binds
G32Q6 (antibody, V domains shown) VH: EVQLLESGGGLVQPGGSLRLSCAASGFTFSNYAMNWVRQAPGKGLEWVSGISGNGVNTFYADSVKGRFTISRDNSRNTLYLQMNSLRAEDTAVYYCAKAIQTYSNYVLGADYWGQGTLVTVSS VL: QSALTQPRSVSGSPGQSVTISCTGTNSDVGNYNFVSWYQQHPGRAPKLMIYDVSKRPSGVPDRFSGSKSDNTASLTISGLQAEDQADYYCCSYATSYTFRVVFGGGTKLTVL    binds

Cited source: paper PMC8299219
